Provenance of the data: patent US9791436B2

# TARGET: T1, bovine thrombin (Bos taurus, UniProt P00735)
# T1 construct: addition of bovine thrombin (1 U per 200 μL)
# EXPERIMENT: Thrombin induction of autoinhibited TVMV-based biosensor protease activity (quenched fluorescent TVMV substrate)
# Format: biochemical
# ASSAY_SETUP: biosensor 1 μM, 10 μM protease substrate, presence vs absence of bovine thrombin (1 U per 200 μL)
VALUE_TYPE: Fold Induction

Please look up its Fold Induction: H6-143: thrombin-inducible autoinhibited TVMV biosensor, SEQ ID NO: 6 (protein, protease construct) SSGSKALLKGVRDFNPISACVCLLENSSDGHSERLFGIGFGPYIIANQHLFRRNNGELTIKTMHGEFKVKNSTQLQMKPVEGRDIIVIKMAKDFPPFPQKLKFRQPTIKDRVCMVSTNFQQKSVSSLVSESSHIVHKEDTSFWQHWITTKDGQCGSPLVSIIDGNILGIHSLTHTTNGSNYFVEFPEKFVATYLDAADGWCKNWKFNADKISWGSFYLYEDAPEDFMSGLVPRGVGREYVRFAPGSTHHHHHH
~60 fold

Consider next the molecule 2B4-AP: thrombin-inducible autoinhibited TVMV biosensor, SEQ ID NO: 3 (protein, protease construct) SSGSKALLKGVRDFNPISACVCLLENSSDGHSERLFGIGFGPYIIANQHLFRRNNGELTIKTMHGEFKVKNSTQLQMKPVEGRDIIVIKMAKDFPPFPQKLKFRQPTIKDRVCMVSTNFQQKSVSSLVSESSHIVHMRDTSFWQHWITTKDGQCGSPLVSIIDGNILGIHSLTHTTNGSNYFVEFPEKFVATYLDAADGWCKNWKFNADKISWGSFTLVEDAPSGLVPRGVSGEGETVRFAPGSTHHHHHH in the same way.
~25 fold
